Below are pIC50 values recorded for human oxytocin receptor (Homo sapiens).
Scale: negative log10 of molar concentration, which is what pIC50 denotes.

Recorded pIC50 (molecule Cc1cc(C(=O)N2Cc3ccc(C(=O)N(C)C[C@H](O)[C@@H](O)[C@H](O)[C@H](O)CO)n3Cc3ccccc32)ccc1C1=CCCc2ccccc21 [Example 15] ): 8.50

Recorded pIC50 (molecule COC[C@@H](OC)[C@@H](OC)[C@H](OC)[C@H](CN(C)C(=O)c1ccc2n1Cc1ccccc1N(C(=O)c1cc(Cl)c(C3=CCCCC3)cc1OC)C2)OC [Example 2] ): 7.71

Recorded pIC50 (molecule COc1cc(C2=CCCCC2)c(Cl)cc1C(=O)N1Cc2ccc(C(=O)N(C)CC(O)CO)n2Cc2ccccc21 (centres unmarked) [Example 4] ): 8.68

Recorded pIC50 (molecule COc1cc(C2=CCCCC2)c(Cl)cc1C(=O)N1Cc2ccc(C(=O)N(C)C[C@@H]3OC(=O)O[C@H]3[C@H](O)[C@H]3COC(=O)O3)n2Cc2ccccc21 [Example 3] ): 8.31

Recorded pIC50 (molecule COc1cc(C2=CCCCC2)c(Cl)cc1C(=O)N1Cc2ccc(C(=O)N(C)C[C@H](O)[C@@H](O)[C@H](O)[C@H](O)CO)n2Cc2ccccc21 [Example 1] ): 9.01

* * *

experimentalSystem: human V2 vasopressin receptor subtype (Homo sapiens, UniProt P30518)
Construct: host or cells: CHO cells, stably transfected (pZeoSV vector); membranes
Sequence (P30518 whole entry): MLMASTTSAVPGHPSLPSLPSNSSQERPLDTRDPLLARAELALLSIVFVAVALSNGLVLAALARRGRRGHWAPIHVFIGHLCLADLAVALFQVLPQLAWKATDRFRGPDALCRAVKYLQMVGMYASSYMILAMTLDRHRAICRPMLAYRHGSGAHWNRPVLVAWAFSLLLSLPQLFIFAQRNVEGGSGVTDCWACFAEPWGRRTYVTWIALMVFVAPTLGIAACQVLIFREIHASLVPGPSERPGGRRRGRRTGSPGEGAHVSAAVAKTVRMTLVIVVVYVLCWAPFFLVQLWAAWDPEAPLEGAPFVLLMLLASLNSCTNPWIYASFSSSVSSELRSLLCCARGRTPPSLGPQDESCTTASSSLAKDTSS
assayMethodText: Vasopressin binding in CHO cell membranes expressing human vasopressin V2 subtype receptors ([3H]arginine vasopressin)
protocolConditions: 100 nM, value without parentheses
readoutType: inhibition at 0.1 µM (%)
State just the number; it will be interpreted in %.

Recorded inhibition at 0.1 µM (molecule "COc1cc(C2=CCCCC2)c(Cl)cc1C(=O)N1Cc2ccc(C(=O)O)n2Cc2ccccc21" ): 4

Recorded inhibition at 0.1 µM (molecule "Cc1cc(C(=O)N2Cc3ccc(C(=O)O)n3Cc3ccccc32)ccc1C1=CCCCC1" ): 15

Recorded inhibition at 0.1 µM (molecule Cc1cc(C(=O)N2Cc3ccc(C(=O)O)n3Cc3ccccc32)ccc1C1=CCCc2ccccc21 [Example 15B] ): 40

Recorded inhibition at 0.1 µM (molecule "COC(=O)[C@H](CO)NC(=O)c1ccc2n1Cc1ccccc1N(C(=O)c1ccc(C3=CCCCC3)c(C)c1)C2" ): 10

Recorded inhibition at 0.1 µM (molecule "COC(=O)[C@@H](CO)NC(=O)c1ccc2n1Cc1ccccc1N(C(=O)c1ccc(C3=CCCCC3)c(C)c1)C2" ): 9

Recorded inhibition at 0.1 µM (molecule "CCOC(=O)[C@H](Cc1ccc(O)cc1)NC(=O)c1ccc2n1Cc1ccccc1N(C(=O)c1ccc(C3=CCCCC3)c(C)c1)C2" ): 11

Recorded inhibition at 0.1 µM (molecule "Cc1cc(C(=O)N2Cc3ccc(C(=O)N(C)C[C@@H]4OC(=O)O[C@H]4[C@H](O)[C@H]4COC(=O)O4)n3Cc3ccccc32)ccc1C1=CCCCC1" ): 14

Recorded inhibition at 0.1 µM (molecule "Cc1cc(C(=O)N2Cc3ccc(C(=O)N[C@H](CO)C(=O)O)n3Cc3ccccc32)ccc1C1=CCCCC1" ): 11

Recorded inhibition at 0.1 µM (molecule "Cc1cc(C(=O)N2Cc3ccc(C(=O)N[C@@H](CO)C(=O)O)n3Cc3ccccc32)ccc1C1=CCCCC1" ): 9

* * *

readoutType: melting point

Recorded melting point (molecule Cc1cc(C(=O)N2Cc3ccc(C(=O)N(C)C[C@H](O)[C@H]4OC(=O)O[C@@H]4[C@H](O)CO)n3Cc3ccccc32)ccc1C1=CCCCC1 [Example 6] ): 166 to 175 °C

Recorded melting point (molecule COc1cc(C2=CCCCC2)c(Cl)cc1C(=O)N1Cc2ccc(C(=O)N(C)C[C@@H]3OC(=O)O[C@H]3[C@H](O)[C@H]3COC(=O)O3)n2Cc2ccccc21 [Example 3] ): 163 to 176 °C

Recorded melting point (molecule Cc1cc(C(=O)N2Cc3ccc(C(=O)N(C)C[C@@H]4OC(=O)O[C@H]4[C@H](O)[C@H]4COC(=O)O4)n3Cc3ccccc32)ccc1C1=CCCCC1 [Example 7] ): 162 to 168 °C

Recorded melting point (molecule COc1cc(C2=CCCCC2)c(Cl)cc1C(=O)N1Cc2ccc(C(=O)N(C)CC(O)CO)n2Cc2ccccc21 (stereo not drawn) [Example 4] ): 155 to 157 °C

Recorded melting point (molecule COC[C@@H](OC)[C@@H](OC)[C@H](OC)[C@H](CN(C)C(=O)c1ccc2n1Cc1ccccc1N(C(=O)c1ccc(C3=CCCCC3)c(C)c1)C2)OC [Example 8] ): 68 to 83 °C

Recorded melting point (molecule COc1cc(C2=CCCCC2)c(Cl)cc1C(=O)N1Cc2ccc(C(=O)N(C)C[C@H](O)[C@@H](O)[C@H](O)[C@H](O)CO)n2Cc2ccccc21 [Example 1] ): 72 to 73 °C

* * *

Please respond with reported OT % inhibition @ 100 nM for every item in the list.
experimentalSystem: human oxytocin receptor (Homo sapiens, UniProt P30559)
Construct: host or cells: CHO cells, stably transfected (pcDNA3.1 vector); membranes
Sequence (P30559 whole entry): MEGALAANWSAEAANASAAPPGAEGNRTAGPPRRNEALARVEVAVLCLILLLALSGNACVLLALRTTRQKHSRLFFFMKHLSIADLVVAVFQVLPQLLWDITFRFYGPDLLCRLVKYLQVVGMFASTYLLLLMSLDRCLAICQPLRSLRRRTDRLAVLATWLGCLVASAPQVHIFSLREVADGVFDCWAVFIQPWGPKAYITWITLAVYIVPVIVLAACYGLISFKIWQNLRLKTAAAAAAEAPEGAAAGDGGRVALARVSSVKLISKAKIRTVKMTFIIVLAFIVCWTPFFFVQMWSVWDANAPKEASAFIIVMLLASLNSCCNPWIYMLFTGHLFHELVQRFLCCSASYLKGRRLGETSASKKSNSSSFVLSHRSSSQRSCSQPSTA
assayMethodText: Oxytocin binding in CHO cell membranes expressing human oxytocin receptors ([3H]oxytocin radioligand)
protocolConditions: 100 nM, value without parentheses
State just the number; it will be interpreted in %.

Recorded OT % inhibition @ 100 nM (compound "Cc1cc(C(=O)N2Cc3ccc(C(=O)N(CCO)CCO)n3Cc3ccccc32)ccc1C1=CCCc2ccccc21" ): 98

Recorded OT % inhibition @ 100 nM (compound "Cc1cc(C(=O)N2Cc3ccc(C(=O)N[C@@H](Cc4ccc(O)cc4)C(=O)O)n3Cc3ccccc32)ccc1C1=CCCCC1" ): 54

Recorded OT % inhibition @ 100 nM (compound "Cc1cc(C(=O)N2Cc3ccc(C(=O)C(Cl)(Cl)Cl)n3Cc3ccccc32)ccc1C1=CCCCC1" ): 10

Recorded OT % inhibition @ 100 nM (compound "Cc1cc(C(=O)N2Cc3ccc(C(=O)N4CCN(CCO)CC4)n3Cc3ccccc32)ccc1C1=CCCCC1" ): 88

* * *

experimentalSystem: human V2 vasopressin receptor subtype (Homo sapiens, UniProt P30518)
Construct: host or cells: CHO cells, stably transfected (pZeoSV vector); membranes
assayMethodText: Vasopressin binding in CHO cell membranes expressing human vasopressin V2 subtype receptors ([3H]arginine vasopressin)
protocolConditions: 100 nM, value without parentheses
readoutType: V2 % inhibition @ 100 nM (%)
State just the number; it will be interpreted in %.

Recorded V2 % inhibition @ 100 nM (molecule "Cc1cc(C(=O)N2Cc3ccc(C(=O)N4CCN(CCO)CC4)n3Cc3ccccc32)ccc1C1=CCCCC1" ): 7

Recorded V2 % inhibition @ 100 nM (molecule "Cc1cc(C(=O)N2Cc3ccc(C(=O)N[C@@H](Cc4ccc(O)cc4)C(=O)O)n3Cc3ccccc32)ccc1C1=CCCCC1" ): 15

Recorded V2 % inhibition @ 100 nM (molecule "Cc1cc(C(=O)N2Cc3ccc(C(=O)N(CCO)CCO)n3Cc3ccccc32)ccc1C1=CCCc2ccccc21" ): 46

Recorded V2 % inhibition @ 100 nM (molecule "Cc1cc(C(=O)N2Cc3ccc(C(=O)C(Cl)(Cl)Cl)n3Cc3ccccc32)ccc1C1=CCCCC1" ): 1

* * *

Please respond with reported inhibition at 0.1 µM for every item in the list.
experimentalSystem: human oxytocin receptor (Homo sapiens)
Construct: host or cells: CHO cells, stably transfected (pcDNA3.1 vector); membranes
assayMethodText: Oxytocin binding in CHO cell membranes expressing human oxytocin receptors ([3H]oxytocin radioligand)
protocolConditions: 100 nM, value without parentheses, read-out: OT % inhibition @ 100 nM
State just the number; it will be interpreted in %.

Per the reported human oxytocin receptor (Homo sapiens) data, Cc1cc(C(=O)N2Cc3ccc(C(=O)N(C)C[C@@H]4OC(=O)O[C@H]4[C@H](O)[C@H]4COC(=O)O4)n3Cc3ccccc32)ccc1C1=CCCCC1 [Example 7] has inhibition at 0.1 µM of 99

Per the reported human oxytocin receptor (Homo sapiens) data, Cc1cc(C(=O)N2Cc3ccc(C(=O)O)n3Cc3ccccc32)ccc1C1=CCCCC1 [Example 5E] has inhibition at 0.1 µM of 26

Per the reported human oxytocin receptor (Homo sapiens) data, COc1cc(C2=CCCCC2)c(Cl)cc1C(=O)N1Cc2ccc(C(=O)O)n2Cc2ccccc21 [Example 1G] has inhibition at 0.1 µM of 21

Per the reported human oxytocin receptor (Homo sapiens) data, Cc1cc(C(=O)N2Cc3ccc(C(=O)N[C@H](CO)C(=O)O)n3Cc3ccccc32)ccc1C1=CCCCC1 [Example 14] has inhibition at 0.1 µM of 50

* * *

experimentalSystem: human vasopressin V1a receptor subtype (Homo sapiens)
Construct: host or cells: CHO cells, stably transfected (pZeoSV vector for the Thibonnier line); membranes
Sequence (P37288 whole entry): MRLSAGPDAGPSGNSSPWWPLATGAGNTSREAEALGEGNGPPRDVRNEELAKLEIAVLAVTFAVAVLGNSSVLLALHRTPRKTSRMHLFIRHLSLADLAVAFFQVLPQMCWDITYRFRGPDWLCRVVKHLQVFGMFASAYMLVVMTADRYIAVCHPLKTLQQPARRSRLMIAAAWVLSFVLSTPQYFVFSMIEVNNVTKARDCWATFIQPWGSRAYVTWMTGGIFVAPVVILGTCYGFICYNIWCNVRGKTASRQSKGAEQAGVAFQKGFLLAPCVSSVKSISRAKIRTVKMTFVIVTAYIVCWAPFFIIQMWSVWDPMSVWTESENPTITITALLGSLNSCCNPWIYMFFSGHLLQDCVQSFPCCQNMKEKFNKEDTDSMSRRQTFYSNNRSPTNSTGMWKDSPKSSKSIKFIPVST
assayMethodText: Vasopressin binding in CHO cell membranes expressing human vasopressin V1a subtype receptors ([3H]Manning ligand)
protocolConditions: 100 nM, value without parentheses
readoutType: inhibition at 0.1 µM (%)
State just the number; it will be interpreted in %.

Recorded inhibition at 0.1 µM (molecule "COC(=O)[C@@H](CO)NC(=O)c1ccc2n1Cc1ccccc1N(C(=O)c1ccc(C3=CCCCC3)c(C)c1)C2" ): 16

Recorded inhibition at 0.1 µM (molecule "Cc1cc(C(=O)N2Cc3ccc(C(=O)O)n3Cc3ccccc32)ccc1C1=CCCCC1" ): 8

Recorded inhibition at 0.1 µM (molecule "Cc1cc(C(=O)N2Cc3ccc(C(=O)N(C)C[C@@H]4OC(=O)O[C@H]4[C@H](O)[C@H]4COC(=O)O4)n3Cc3ccccc32)ccc1C1=CCCCC1" ): 62

Recorded inhibition at 0.1 µM (molecule "CCOC(=O)[C@H](Cc1ccc(O)cc1)NC(=O)c1ccc2n1Cc1ccccc1N(C(=O)c1ccc(C3=CCCCC3)c(C)c1)C2" ): 6

Recorded inhibition at 0.1 µM (molecule "Cc1cc(C(=O)N2Cc3ccc(C(=O)N[C@@H](CO)C(=O)O)n3Cc3ccccc32)ccc1C1=CCCCC1" ): 5

Recorded inhibition at 0.1 µM (molecule "Cc1cc(C(=O)N2Cc3ccc(C(=O)N[C@H](CO)C(=O)O)n3Cc3ccccc32)ccc1C1=CCCCC1" ): 6

Recorded inhibition at 0.1 µM (molecule "COC(=O)[C@H](CO)NC(=O)c1ccc2n1Cc1ccccc1N(C(=O)c1ccc(C3=CCCCC3)c(C)c1)C2" ): 6

Recorded inhibition at 0.1 µM (molecule "COc1cc(C2=CCCCC2)c(Cl)cc1C(=O)N1Cc2ccc(C(=O)O)n2Cc2ccccc21" ): 0

Recorded inhibition at 0.1 µM (molecule Cc1cc(C(=O)N2Cc3ccc(C(=O)O)n3Cc3ccccc32)ccc1C1=CCCc2ccccc21 [Example 15B] ): -2

Where do these numbers come from? They come from patent US6977254B2.
